PROTOCOL TEXT: gradient 5% acetonitrile 3 min, to 50% in 2 min, to 85% in 15 min, held 3 min, 100 µL/min
TEST PARAMETERS: column: Zorbax Extend-C18 2.1 x 50 mm; eluents: water / acetonitrile, 0.1% formic acid
MEASUREMENT TYPE: RP-LC retention time (s)

O=C(Nc1cccc(Cl)c1)C1CCN(S(=O)(=O)c2ccc3[nH]c(=O)ccc3c2)CC1 ... 808
CCCCN1C(=O)c2ccccc2C(C(=O)NCCC(=O)OC)C12CCCCC2 (centres undefined) ... 868

a: CC1CCCCN1c1nc(-c2ccc(C(C)(C)C)cc2)nc2ccccc12 (centres undefined)
b: Cc1ccc2nc(C(=O)NCc3ccccc3Cl)cn2c1
Prompt: Dear colleague, could you let me know whether a or b has the lower recorded RP-LC retention time? Thanks. Respond using the label that marks the chosen record.
Completion: b
(b: 718 s, a: 1050 s)

----------
PROTOCOL TEXT: gradient 5% acetonitrile 3 min, to 50% in 2 min, to 85% in 15 min, held 3 min, 100 µL/min
TEST PARAMETERS: column: Zorbax Extend-C18 2.1 x 50 mm; eluents: water / acetonitrile, 0.1% formic acid
MEASUREMENT TYPE: RP-LC retention time (s)

COc1ccccc1-c1noc(C2CCCN2C(=O)c2ccc(C#N)cc2F)n1 (stereo unspecified) ... 839
CCc1nc(N)n(CC(=O)Nc2ccc(OC)cc2)c(=O)c1C ... 650
Cc1noc(-c2ccc(=O)n(CC(C)C)n2)n1 ... 761
COCC(=O)N1C[C@@H]2CCCN3CCC[C@@H]([C@H]23)[C@H]1CCCC(=O)NCC1CC1 ... 566
Oc1ccc(-c2nc3ncccn3c2Nc2ccc3c(c2)OCCO3)cc1 ... 610
CCCNC(=O)C1CCN(C(=O)CCc2c(C)[nH]c(C(=O)OCC)c2C)CC1 ... 679

----------
PROTOCOL TEXT: gradient 5% acetonitrile 3 min, to 50% in 2 min, to 85% in 15 min, held 3 min, 100 µL/min
TEST PARAMETERS: column: Zorbax Extend-C18 2.1 x 50 mm; eluents: water / acetonitrile, 0.1% formic acid
MEASUREMENT TYPE: RP-LC retention time (s)

COCCN1C(=O)CCc2cc(NS(=O)(=O)c3cccs3)ccc21 ... 706
CC(C)NC(=O)c1ccc(OCC2CCCN2C(=O)c2ccc(N(C)C)cc2)cc1 (stereo not given) ... 799
Cn1c(=O)oc2ccc(C(=O)Nc3nc4ccccc4s3)cc21 ... 843
CN1CC(=O)N(CC(=O)N2CCN(c3cccc(Cl)c3)CC2)c2ccccc2C1=O ... 747
O=C1NCCOCCN(C(=O)COc2ccccc2)[C@H]2CCC[C@@H]12 ... 683

----------
PROTOCOL TEXT: gradient 5% acetonitrile 3 min, to 50% in 2 min, to 85% in 15 min, held 3 min, 100 µL/min
TEST PARAMETERS: column: Zorbax Extend-C18 2.1 x 50 mm; eluents: water / acetonitrile, 0.1% formic acid
MEASUREMENT TYPE: RP-LC retention time (s)

Known RP-LC retention time results, listed for orientation:
CCN(CCNC(=O)C1CCN(c2nnc3ccc(Cl)cn23)CC1)c1ccccc1 ... 629
CCCCNC(=O)C1CCCN(c2ccc(-c3ccc(C)c(C)c3)nn2)C1 (centres undefined) ... 735
CC(C)n1cnc(S(=O)(=O)N2CCC(C(=O)NCc3cccs3)CC2)c1 ... 701
O=C(NCc1ccccc1Br)c1cn2nc(Cl)ccc2n1 ... 894
O=C(Nc1cnn(-c2ncc(N3CCCC3)cn2)c1)c1cccc(C(F)(F)F)c1 ... 917

P: Cc1cc(SCC(=O)Nc2ccc3c(c2)OCO3)nc(-c2cnccn2)n1
Q: CC1(C)CC(=O)c2cn(-c3ccccc3)c(=O)c(C(=O)Nc3ccc(Cl)cn3)c2C1
Prompt: Which record would sort first by descending RP-LC retention time, P or Q ? Respond using the label that marks the chosen record.
Completion: Q

----------
PROTOCOL TEXT: gradient 5% acetonitrile 3 min, to 50% in 2 min, to 85% in 15 min, held 3 min, 100 µL/min
TEST PARAMETERS: column: Zorbax Extend-C18 2.1 x 50 mm; eluents: water / acetonitrile, 0.1% formic acid
MEASUREMENT TYPE: RP-LC retention time (s)

Cc1ccccc1-c1nc(-c2ccc3c(c2)nc(C)c(=O)n3C)no1 ... 1120
O=C(CN1C(=O)C2CCCCN2c2ccc(S(=O)(=O)N3CCCC3)cc21)NCc1cccs1 (stereo not drawn) ... 882
COc1ccc(-c2nnc(N3CCC(C(=O)NCCC(C)C)CC3)o2)cc1 ... 838

----------
PROTOCOL TEXT: gradient 5% acetonitrile 3 min, to 50% in 2 min, to 85% in 15 min, held 3 min, 100 µL/min
TEST PARAMETERS: column: Zorbax Extend-C18 2.1 x 50 mm; eluents: water / acetonitrile, 0.1% formic acid
MEASUREMENT TYPE: RP-LC retention time (s)

Known RP-LC retention time results, listed for orientation:
COCC(=O)NC(Cc1ccccc1)c1nnc(N2CCSCC2)o1 (stereo unspecified) ... 721
O=C(NC(=O)c1ccccc1)OCCN1CCN(c2ncc(C(F)(F)F)cc2Cl)CC1 ... 692
O=C1CN(C(=O)CSc2ccccc2)c2ccccc2N1 ... 694
CCOC(=O)c1c(C)[nH]c(C(=O)N2CCC(CC(=O)NCc3ccc(OC(C)C)cc3)CC2)c1C ... 866
CCOc1ccc(-c2nc(C3CC(=O)N(c4ccc(OC)cc4)C3)no2)cc1 (stereo unspecified) ... 1010

a: Cn1c(=O)c(N2CCC(NC(=O)Nc3ccc(Cl)cc3)CC2)nc2cccnc21
b: O=C(Cn1c(=O)c(=O)n(Cc2ccncc2)c2ncccc21)NCCc1ccc(Cl)cc1
Prompt: Which record would sort first by descending RP-LC retention time, a or b ? Respond using the label that marks the chosen record.
Completion: a

----------
PROTOCOL TEXT: gradient 5% acetonitrile 3 min, to 50% in 2 min, to 85% in 15 min, held 3 min, 100 µL/min
TEST PARAMETERS: column: Zorbax Extend-C18 2.1 x 50 mm; eluents: water / acetonitrile, 0.1% formic acid
MEASUREMENT TYPE: RP-LC retention time (s)

Known RP-LC retention time results, listed for orientation:
O=c1ccc(-c2ccc3c(c2)OCO3)nn1CCc1nc(-c2ccc(Cl)c(F)c2)no1 ... 1050
Cc1noc(C)c1Cc1ccc(C(=O)N2CCCCCCN(C)C(=O)[C@@H]3CCC[C@@H]32)o1 ... 814
Cc1cccc(NC(=O)Nc2c(-c3ccc(F)cc3)nc3ccccn23)c1 ... 695
COCc1nncn1C1CCN(S(=O)(=O)c2ccc(F)c(Cl)c2)CC1 ... 739
O=C(Nc1cccc(Cl)c1)c1cnn2c1CCCC2 ... 814

P: Cc1nc(-c2ccccc2OC2CN(S(=O)(=O)c3cccc4nsnc34)C2)no1
Q: COc1ccc(CN(C)Cc2cc(=O)n3cc(Cl)ccc3n2)cc1OC
Prompt: Which record would sort first by descending RP-LC retention time, P or Q ? Respond using the label that marks the chosen record.
Completion: P

----------
PROTOCOL TEXT: gradient 5% acetonitrile 3 min, to 50% in 2 min, to 85% in 15 min, held 3 min, 100 µL/min
TEST PARAMETERS: column: Zorbax Extend-C18 2.1 x 50 mm; eluents: water / acetonitrile, 0.1% formic acid
MEASUREMENT TYPE: RP-LC retention time (s)

Known RP-LC retention time results, listed for orientation:
COc1ccc(-c2nc(NCCCN3CCOCC3)c3ccccc3n2)cc1 ... 557
CNc1ncnc2c1cnn2C1CCCCO1 (stereo unspecified) ... 635
CCCC(=O)Nc1ccc(-n2cnc(C(=O)NC)c2)nc1 ... 598
CCn1c(=O)n(CC)c2cc(S(=O)(=O)c3ccccc3)c(NC(=O)CC(C)C)cc21 ... 937
Cc1nnc([C@@H]2CC(F)(F)CN2C(=O)c2nn(C)c3ccccc23)o1 ... 788
CN(CC1CCOC1)C(=O)c1cc(F)ccc1Cl (stereo unspecified) ... 704

a: O=S(=O)(c1cc(-c2nnc(C3CCCC3)o2)co1)N1CCC(N2CCCCC2)CC1
b: CCOc1ccc(-c2noc(CN3C(=O)COc4ccccc43)n2)cc1OC
Prompt: Dear colleague, could you let me know whether a or b has the lower recorded RP-LC retention time? Thanks. Respond using the label that marks the chosen record.
Completion: a

----------
PROTOCOL TEXT: gradient 5% acetonitrile 3 min, to 50% in 2 min, to 85% in 15 min, held 3 min, 100 µL/min
TEST PARAMETERS: column: Zorbax Extend-C18 2.1 x 50 mm; eluents: water / acetonitrile, 0.1% formic acid
MEASUREMENT TYPE: RP-LC retention time (s)

Cc1cnc(C(=O)N2CCCCCCN(C)C(=O)[C@@H]3CCC[C@@H]32)cn1 ... 716
CNc1ncn(-c2c(C)cccc2C)c(=O)n1 ... 684
CCOC(=O)c1cc(S(=O)(=O)N2CCCC2C(=O)Nc2ccc(NC(C)=O)cc2)cn1C (configuration not stated) ... 718
COc1cc2c(cc1OC)C(=O)C(CC1CCN(Cc3ccccc3)CC1)C2 (configuration not stated) ... 690
O=C(NCc1ccco1)C1CCN(c2ccc3nnc(-c4ccccc4F)n3n2)CC1 ... 708
CCCCCNC(=O)c1cn(-c2ccc(NC(C)=O)cn2)cn1 ... 690
COc1ccc(N2C(=O)N[C@H]3C[C@@]2(C)Oc2c(OC)cccc23)c(OC)c1 ... 712
